- MEASUREMENT_DESCRIPTION: Antioxidant activity assessed as DPPH free radical scavenging activity at 25 uM after 30 mins in dark by spectrophotometric method relative to control
- Assay type: functional
In this section, each of the compounds is paired with its reported Activity.
The answer is to be given in %; state only the numeric part.

[
  {
    "SAMPLE_SMILES": "O=C1O[C@H]([C@@H](O)CO)C(O)=C1O",
    "VALUE": 76.5
  },
  {
    "SAMPLE_SMILES": "CCC[C@@H]1C[C@H](O)[C@@H](O)/C=C/C=C\\C(=O)O1",
    "VALUE": 37.4
  }
]

Activity recorded for this compound, `CCC/C=C/[C@@H]1OC(=O)c2cc(O)cc(O)c2[C@@H]1O` , is 58

The recorded Activity for entry `CCC[C@@H]1C[C@H](O)[C@@H](OC)/C=C/C=C\C(=O)O1` equals 7.12

GET /value?item= `CCC[C@H]1OC(=O)/C=C\C=C\[C@H](O)[C@@H](O)[C@@H]1[C@H](C)COC(=O)c1ccc(O)cc1` &field=Activity returns 48.3
